Biological target: HLA-A*02:01 (Homo sapiens, UniProt P04439, D140Y/D185E/D98H/E176V/E277Q/G131W/G231S/I119V/I121R/I166T/I218V/L300P/L318F/N151K/N90K/P208A/P217A/Q86G/Q94H/R138H/R169H/T345S)
Experiment: MHC binding assay (UV-ligand exchange, β2m ELISA, peptide exchange yield)
Conditions: MHC class I binding score; binding to HLA-A*02:01 ranged by peptide exchange yield (UV-ligand exchange, β2m ELISA)
measure name: Peptide exchange

Solved cases below.
> print(dat)
                                  substance      measure.name        value.reported
1  524 (ALIENLTHQI; listed as Homo sapiens) [compound 524]  Peptide exchange      ″++″ (≧20% = ++)
2  304 (MTLGQIYYL; listed as Homo sapiens) [compound 304]  Peptide exchange    ″+++″ (≧50% = +++)
3  298 (VMITKLVEV; listed as Homo sapiens) [compound 298]  Peptide exchange    ″+++″ (≧50% = +++)
4  609 (ALWKQLLEL; listed as Homo sapiens) [compound 609]  Peptide exchange    ″+++″ (≧50% = +++)
5  621 (VLMDRLPSLL; listed as Homo sapiens) [compound 621]  Peptide exchange  ″++++″ (≧75% = ++++)

Qu. Recorded Peptide exchange of 143 (LLLDITPEI; listed as Homo sapiens) [compound 143] , please.
Ans. ″++++″ (≧75% = ++++)

Qu. Fill in the blank: the reported Peptide exchange of 315 (YLQDVVEQA; listed as Homo sapiens) [compound 315] is ____.
Ans. ″+++″ (≧50% = +++)

Qu. So what does the record say about Peptide exchange for 457 (SLLPGNLVEKV; listed as Homo sapiens) [compound 457] ?
Ans. ″+++″ (≧50% = +++)

Qu. Return reported Peptide exchange; argument: 381 (FIDEAYVEV; listed as Homo sapiens) [compound 381]
Ans. ″++″ (≧20% = ++)

Qu. Any idea what Peptide exchange was measured for 48 (ALAELYEDEV; listed as Homo sapiens) [compound 48] ?
Ans. ″+++″ (≧50% = +++)

Qu. Bench note: what Peptide exchange did 366 (RLLDMGETDLML; listed as Homo sapiens) [compound 366] show?
Ans. ″+++″ (≧50% = +++)

Qu. // lookup Peptide exchange for 204 (KIAENVEEV; listed as Homo sapiens) [compound 204]
Ans. ″++″ (≧20% = ++)

Qu. Dear colleague, I am looking for the recorded Peptide exchange of the following substance: 351 (SLIPNLRNV; listed as Homo sapiens) [compound 351]
Ans. ″+++″ (≧50% = +++)

Qu. Peptide exchange lookup needed for 602 (YLLEQIKLIEV; listed as Homo sapiens) [compound 602] , thanks.
Ans. ″++++″ (≧75% = ++++)

###

Target: HLA-A*02:01 (Homo sapiens, UniProt P04439, D140Y/D185E/D98H/E176V/E277Q/G131W/G231S/I119V/I121R/I166T/I218V/L300P/L318F/N151K/N90K/P208A/P217A/Q86G/Q94H/R138H/R169H/T345S)
Test: MHC binding assay (UV-ligand exchange, β2m ELISA, peptide exchange yield)
Conditions: MHC class I binding score; binding to HLA-A*02:01 ranged by peptide exchange yield (UV-ligand exchange, β2m ELISA)
measure name: Peptide exchange

> print(dat)
                                  substance      value.reported
1  478 (YLLHEKLNL; listed as Homo sapiens) [compound 478]  ″+++″ (≧50% = +++)
2  607 (RLYSGISGLEL; listed as Homo sapiens) [compound 607]  ″+++″ (≧50% = +++)
3  93 (LLQAIKLYL; listed as Homo sapiens) [compound 93]    ″++″ (≧20% = ++)
4  511 (FLDPYCSASV; listed as Homo sapiens) [compound 511]    ″++″ (≧20% = ++)
5  473 (AMATESILHFA; listed as Homo sapiens) [compound 473]  ″+++″ (≧50% = +++)

Qu. # query: Peptide exchange of entry 92 (YLIPFTGIVGL; listed as Homo sapiens) [compound 92]
Ans. ″++″ (≧20% = ++)

Qu. Query: Peptide exchange; subject: 185 (FLIDDKGYTL; listed as Homo sapiens) [compound 185]
Ans. ″++″ (≧20% = ++)

Qu. Give the measured Peptide exchange of 14 (AAYGGLNEKSFV; listed as Homo sapiens) [compound 14] .
Ans. ″+++″ (≧50% = +++)

Qu. // returns reported Peptide exchange for input 484 (SLIEKVTQL; listed as Homo sapiens) [compound 484]
Ans. ″+++″ (≧50% = +++)

Qu. Name the reported Peptide exchange value associated with the substance 622 (RLLGEEVVRVLQA; listed as Homo sapiens) [compound 622]
Ans. ″+++″ (≧50% = +++)

###

Biological target: HLA-A*02:01 (Homo sapiens, UniProt P04439, D140Y/D185E/D98H/E176V/E277Q/G131W/G231S/I119V/I121R/I166T/I218V/L300P/L318F/N151K/N90K/P208A/P217A/Q86G/Q94H/R138H/R169H/T345S)
Assay: MHC binding assay (UV-ligand exchange, β2m ELISA, peptide exchange yield)
Settings: MHC class I binding score; binding to HLA-A*02:01 ranged by peptide exchange yield (UV-ligand exchange, β2m ELISA)
Excerpt: Candidate peptides for T cell based therapies according to the present invention were further tested for their MHC binding capacity (affinity). The individual peptide-MHC complexes were produced by UV-ligand exchange, where a UV-sensitive peptide is cleaved upon UV-irradiation, and exchanged with the peptide of interest as analyzed. Only peptide candidates that can effectively bind and stabilize the peptide-receptive MHC molecules prevent dissociation of the MHC complexes. […]
measure name: Peptide exchange

Some substances with known Peptide exchange results, for comparison:
> print(dat)
                                  substance        value.reported
1  593 (GLPRFGIEMV; listed as Homo sapiens) [compound 593]    ″+++″ (≧50% = +++)
2  247 (VLLPNDLLEKV; listed as Homo sapiens) [compound 247]    ″+++″ (≧50% = +++)
3  89 (YILPTETIYV; listed as Homo sapiens) [compound 89]  ″++++″ (≧75% = ++++)
4  310 (FLVDTPLARA; listed as Homo sapiens) [compound 310]  ″++++″ (≧75% = ++++)
5  405 (ALYDVFLEV; listed as Homo sapiens) [compound 405]      ″++″ (≧20% = ++)
6  508 (ILAQEQLVVGV; listed as Homo sapiens) [compound 508]    ″+++″ (≧50% = +++)

Qu. Fill in the blank: the reported Peptide exchange of 433 (AMLNEPWAV; listed as Homo sapiens) [compound 433] is ____.
Ans. ″+++″ (≧50% = +++)

Qu. Query: Peptide exchange; subject: 432 (TLIEESAKV; listed as Homo sapiens) [compound 432]
Ans. ″++″ (≧20% = ++)

Qu. Param item = 228 (AMQEYIAVV; listed as Homo sapiens) [compound 228] ; retrieve measured Peptide exchange.
Ans. ″++″ (≧20% = ++)

###

Target: HLA-A*02:01 (Homo sapiens, UniProt P04439, D140Y/D185E/D98H/E176V/E277Q/G131W/G231S/I119V/I121R/I166T/I218V/L300P/L318F/N151K/N90K/P208A/P217A/Q86G/Q94H/R138H/R169H/T345S)
Experiment: MHC binding assay (UV-ligand exchange, β2m ELISA, peptide exchange yield)
Conditions: MHC class I binding score; binding to HLA-A*02:01 ranged by peptide exchange yield (UV-ligand exchange, β2m ELISA)
measure name: Peptide exchange

// worked examples, Peptide exchange included
> print(dat)
                                  substance        value.reported
1  339 (GLWEIENNPTVKA; listed as Homo sapiens) [compound 339]  ″++++″ (≧75% = ++++)
2  13 (YLMDESLNL; listed as Homo sapiens) [compound 13]    ″+++″ (≧50% = +++)
3  278 (QLLDVVLTI; listed as Homo sapiens) [compound 278]      ″++″ (≧20% = ++)
4  282 (LLADVVPTT; listed as Homo sapiens) [compound 282]    ″+++″ (≧50% = +++)

Qu. Quick one: Peptide exchange of 412 (YLDDLNEGVYI; listed as Homo sapiens) [compound 412] ?
Ans. ″++″ (≧20% = ++)

Qu. I'd like to know its Peptide exchange. The substance in question is 527 (FLLEPGNLEV; listed as Homo sapiens) [compound 527]
Ans. ″++++″ (≧75% = ++++)

Qu. // returns reported Peptide exchange for input 610 (LLAPTPYIIGV; listed as Homo sapiens) [compound 610]
Ans. ″+++″ (≧50% = +++)

This collection of values is drawn from patent US20170037111A1.
